So I've got a bunch of compounds here, and I need their GI50 values.
Test system: RXF 393 renal
Test Name: NCI tumour cell line growth inhibition, 48 h

Entry under test: COc1ccc(-c2nc(NC(=O)CS(=O)(=O)c3ccc(F)cc3)sc2C)cc1 . Its GI50 was 15600 nM

Sure, the documented GI50 for O=C(O)CCCN1C(=O)/C(=C/C(Cl)=C/c2ccccc2)SC1=S is 1360 nM

What the record says about N#CC1=C(N)NC(=O)C(C#N)C12Nc1ccccc1S2 (configuration not stated) : GI50 is 20400 nM

// recorded GI50 for O=C(CCN1CCCC1)Nc1ccc2c(Nc3ccc(F)cc3)c3ccccc3nc2c1 : 1230 nM

The recorded GI50 for CN[C@@H](C)C(=O)N[C@H](C(=O)N1CCC[C@H]1c1nc(C(=O)c2ccc(F)cc2)cs1)C1CCCCC1 is 1940 nM

The compound Cc1cc(NC(=O)NCCOc2ccc(N3C(N)=NC(N)=NC3(C)C)cc2Cl)ccc1S(=O)(=O)F showed GI50 equal to 2050 nM

The reported GI50 of the compound CN(C)CCNC(=O)c1ccc2c(c1)oc1cc3ccccc3c(=O)n12 was 19600 nM

###

Test system: MDA-MB-231 breast
Test Name: NCI tumour cell line growth inhibition, 48 h
Observable: GI50

Query O=C1/C(=C/c2ccc(F)cc2)COc2ccc(O)c(O)c21 yields GI50 of 1.43 µM

response.value for COc1cc(/C=C/C(=O)c2c(C)n([O-])c3ccccc3[n+]2=O)cc(OC)c1OC (field: GI50) = 9.57 µM

The measured GI50 associated with O=C(O)CCCN1C(=O)/C(=C/C(Cl)=C/c2ccccc2)SC1=S reads 3.17 µM

Query CC(C)(C)OC(=O)N(CCCCN(CCCn1c2c(c3ccccc3c1=O)C(=O)c1ccccc1-2)C(=O)OC(C)(C)C)CCCn1c2c(c3ccccc3c1=O)C(=O)c1ccccc1-2 yields GI50 of 13.9 µM

###

Tested on: UO-31 renal
Test Name: NCI tumour cell line growth inhibition, 48 h
Observable: TGI

N=C1OC(CN2CCN(c3ccccc3)CC2)CN1C(=O)Nc1ccccc1 (stereo not given) yielded TGI of > 100 µM

Input O=C1NC(c2ccccc2)(c2ccccc2)C(=O)N1CCCCCCN1C(=O)NC(c2ccccc2)(c2ccccc2)C1=O . Output TGI: > 100 µM

The reported value for O=C(CCN1CCCC1)Nc1ccc2c(Nc3ccc(F)cc3)c3ccccc3nc2c1 in terms of TGI is 2.55 µM

The reported TGI of the compound Nc1nc(N)nc(CCCCc2nc(N)nc(N)n2)n1 was > 100 µM

The reported TGI of the compound Cc1cc(=O)[nH]c2cc(NC(=O)C(C)NC(=O)C(C)NC(=O)C(C)NC(=O)OC(C)(C)C)ccc12 (stereo not given) was > 15 µM

###

Tested on: A549 NSCLC
Test Name: NCI tumour cell line growth inhibition, 48 h
Observable: TGI (µM)
Give the value in µM but do not write µM after it.

response.value for COc1ccc(-c2cn(C)c3c2-n2cccc2C3=O)cc1O (field: TGI) = 54.1

What the record says about Cc1cc(NS(=O)(=O)c2ccc(NC(=O)c3ccc(Cl)c4c(Nc5ccc(S(=O)(=O)Nc6cc(C)on6)cc5)c5ccccc5nc34)cc2)no1 : TGI is 62.4
